System Tested: Muscarinic acetylcholine receptor M4 (Rattus norvegicus)
Sequence (P08485 whole entry): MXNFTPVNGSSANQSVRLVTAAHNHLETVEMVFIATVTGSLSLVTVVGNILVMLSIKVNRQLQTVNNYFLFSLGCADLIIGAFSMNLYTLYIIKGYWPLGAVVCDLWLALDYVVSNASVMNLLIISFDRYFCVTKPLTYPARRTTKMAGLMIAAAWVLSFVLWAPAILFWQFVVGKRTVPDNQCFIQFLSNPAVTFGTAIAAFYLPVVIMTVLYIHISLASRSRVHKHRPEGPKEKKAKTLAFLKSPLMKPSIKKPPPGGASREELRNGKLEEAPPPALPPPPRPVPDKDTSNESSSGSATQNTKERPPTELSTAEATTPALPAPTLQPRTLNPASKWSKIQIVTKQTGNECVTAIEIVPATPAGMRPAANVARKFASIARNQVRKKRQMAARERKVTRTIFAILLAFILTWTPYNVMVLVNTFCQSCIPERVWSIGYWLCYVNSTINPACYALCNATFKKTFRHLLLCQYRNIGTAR
Property Measured: Ki (nM)
Numbers only here, please. The scale is nM.

Output measured Ki for this item: CN(CCCCCCCCN(C)CCCCCCN(CC(=O)N1c2ccccc2C(=O)Nc2cccnc21)CC(=O)N1c2ccccc2C(=O)Nc2cccnc21)CCCCCCNCC(=O)N1c2ccccc2C(=O)Nc2cccnc21 [TRIPITRAMINE] 11.7
